IC50 values for human DP1 receptor (Homo sapiens, UniProt Q13258), compiled from several publications.
measurementName: IC50

>  <compound>
O=C(O)CCn1c2c(c3ccccc31)CC(N(CC(=O)O)S(=O)(=O)c1ccc(F)cc1)CC2 (stereo not shown)

>  <measuredOn>
human DP1 receptor (Homo sapiens, UniProt Q13258)
Sequence (Q13258 whole entry): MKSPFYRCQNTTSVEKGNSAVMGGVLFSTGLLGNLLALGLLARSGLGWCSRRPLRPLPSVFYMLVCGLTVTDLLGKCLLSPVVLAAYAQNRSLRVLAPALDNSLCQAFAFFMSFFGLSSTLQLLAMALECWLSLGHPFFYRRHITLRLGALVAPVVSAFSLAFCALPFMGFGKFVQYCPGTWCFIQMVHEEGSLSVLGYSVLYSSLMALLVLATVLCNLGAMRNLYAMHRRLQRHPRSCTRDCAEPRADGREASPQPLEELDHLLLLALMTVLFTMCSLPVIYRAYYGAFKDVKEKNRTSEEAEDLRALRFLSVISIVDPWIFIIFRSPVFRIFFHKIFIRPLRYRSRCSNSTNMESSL

>  <observedMeasurement>
> 1000 nM

$$$$
>  <compound>
O=C(O)Cc1cccc(Oc2ccc(Br)cc2CS(=O)(=O)c2nccs2)c1

>  <measuredOn>
human DP1 receptor (Homo sapiens, UniProt Q13258)

>  <observedMeasurement>
> 1000 nM

$$$$
>  <compound>
COc1ccc(CC(=O)O)cc1Oc1ccc(-c2cnn(C)c2)cc1CN1C(=O)O[C@H](c2ccccc2)[C@@H]1C

>  <measuredOn>
human DP1 receptor (Homo sapiens, UniProt Q13258)

>  <observedMeasurement>
> 1000 nM

$$$$
>  <compound>
C[C@H]1[C@@H](c2ccccc2)OC(=O)N1Cc1cc(C(F)(F)F)ccc1Oc1cccc(CC(=O)O)c1

>  <measuredOn>
human DP1 receptor (Homo sapiens, UniProt Q13258)

>  <observedMeasurement>
< 300 nM

$$$$
